ASSAYED_SYSTEM: LGR7 (Homo sapiens)
Construct: expressed in transfected cells; host or cells: HEK293T cells stably expressing recombinant LGR7, transduced with CRE-Luc lentivirus
Sequence (Q9HBX9 whole entry, species assumed): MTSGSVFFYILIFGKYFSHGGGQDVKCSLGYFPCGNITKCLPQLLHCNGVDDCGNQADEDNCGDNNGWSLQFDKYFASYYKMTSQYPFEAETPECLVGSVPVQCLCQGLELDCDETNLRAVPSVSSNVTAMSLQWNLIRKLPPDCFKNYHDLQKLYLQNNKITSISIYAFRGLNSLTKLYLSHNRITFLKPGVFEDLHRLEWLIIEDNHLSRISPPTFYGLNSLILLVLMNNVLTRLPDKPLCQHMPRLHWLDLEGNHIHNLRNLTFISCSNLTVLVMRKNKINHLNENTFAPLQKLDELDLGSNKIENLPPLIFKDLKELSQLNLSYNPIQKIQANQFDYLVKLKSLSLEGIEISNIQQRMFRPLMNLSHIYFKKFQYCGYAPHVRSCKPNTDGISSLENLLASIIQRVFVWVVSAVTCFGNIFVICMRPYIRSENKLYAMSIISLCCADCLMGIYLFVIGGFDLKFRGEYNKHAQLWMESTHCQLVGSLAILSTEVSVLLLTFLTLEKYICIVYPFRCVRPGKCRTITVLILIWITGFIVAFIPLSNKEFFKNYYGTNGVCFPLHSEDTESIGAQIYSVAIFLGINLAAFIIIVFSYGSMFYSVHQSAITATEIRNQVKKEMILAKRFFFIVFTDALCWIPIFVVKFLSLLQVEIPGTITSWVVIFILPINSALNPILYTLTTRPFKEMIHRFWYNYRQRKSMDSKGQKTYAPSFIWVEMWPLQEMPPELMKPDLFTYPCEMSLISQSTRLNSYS
TEST_PROTOCOL: LGR7 CRE-Luc reporter gene assay (bioactivity of relaxin peptides)
Format: cell-based
CONDITION_SET: HEK293T cells expressing LGR7 and CRE-Luc; fold drop relative to relaxin
Positions of bridges follow the written chain, without caps; N, C: chain ends. Chains are numbered I, II in the order given. No end group written: not given here. *: point of attachment. X1 = O=C(O)CCCCCCCCCCCCCCCCC(=O)N[C@@H](CCCCNC(=O)CCOCCOCCNC(=O)CCOCCOCCNC(=O)C*)C(=O)O; X3 = CCCCCCCCCCCCCCCCCC(=O)N[C@@H](CCCCNC(=O)CCOCCOCCOCCOCCOCCNC(=O)C*)C(=O)O; X4 = CCCCCCCCCCCCCC(=O)N[C@@H](CCCCNC(=O)CCOCCOCCOCCOCCOCCNC(=O)C*)C(=O)O
Consider the following substances; for each one, report its Activity, fold drop compared to relaxin.
One number for each entry.

Look over these answered cases.
[
  {
    "SUBSTANCE": "I: ASWMEEVIKLCGRELVRAQIAICGMSTWS / II: QC(X4)YSALANKCCHVGCTKRSLARFC (disulfide I:11-II:11, I:23-II:24, II:10-II:15) [compound 7]",
    "ENDPOINT_RESULT": 2
  },
  {
    "SUBSTANCE": "I: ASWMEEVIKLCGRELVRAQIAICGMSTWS / II: QLYSALANKCCHC(X1)GCTKRSLARFC (disulfide I:11-II:11, I:23-II:24, II:10-II:15) [compound 2]",
    "ENDPOINT_RESULT": 15
  }
]

Q: Need Activity, fold drop compared to relaxin of I: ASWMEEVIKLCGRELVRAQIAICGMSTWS / II: QC(X3)YSALANKCCHVGCTKRSLARFC (disulfide I:11-II:11, I:23-II:24, II:10-II:15) [compound 9] , thanks.
Ans: 10
